details: ASO; note: test concentration or dose not given here
These antisense oligonucleotides have a phosphorothioate backbone; sugars and methylation of C are not fully specified.
testReadout: remaining target (mRNA or protein) (fraction of control)
Respond using a number only.

Examples from the recorded data:
[[record]]
orderedresidues = "ATCAGACTGGAGAGGAGC"
observedmeasurement = 0.73

[[record]]
orderedresidues = "GTCCCCCGACTCCCTTGC"
observedmeasurement = 0.27

[[record]]
orderedresidues = "CTCGTAACAAACTGGTCGAA"
observedmeasurement = 0.83

[[record]]
orderedresidues = "GTAAGTCCAGGAGATAGC"
observedmeasurement = 0.86


Prompt: Tell me the measured remaining target (mRNA or protein) (fraction of control) of AGGCTGCTGGAAAGAGTCAG , please.
Response: 0.53

Prompt: Tell me the measured remaining target (mRNA or protein) (fraction of control) of CCTAGCAGTCTCTTCACTGC , please.
Response: 0.74

Prompt: Tell me the measured remaining target (mRNA or protein) (fraction of control) of AACGTGGTCACTTTATAG , please.
Response: 0.73

###

target: PTPN11; details: ASO
These antisense oligonucleotides have a phosphorothioate backbone; sugars and methylation of C are not fully specified.
testReadout: remaining target (mRNA or protein) (fraction of control)
Respond using a number only.

[[record]]
orderedresidues = "CATCTCCGCGATGTCATGTT"
observedmeasurement = 0.49


Prompt: Tell me the measured remaining target (mRNA or protein) (fraction of control) of AAACCATCTCCGCGATGTCA , please.
Response: 0.41

Prompt: Tell me the measured remaining target (mRNA or protein) (fraction of control) of CCTGCGCTGTAGTGTTTCAA , please.
Response: 0.5

Prompt: Tell me the measured remaining target (mRNA or protein) (fraction of control) of CGCACCATCTGGATGGTTTT , please.
Response: 0.5

###

Examples of sequences with documented remaining target (mRNA or protein) (fraction of control) follow.
conditions: ASO
These antisense oligonucleotides have a phosphorothioate backbone; sugars and methylation of C are not fully specified.
Respond using a number only.

Examples from the recorded data:
[[record]]
orderedresidues = "AAGTCCAAGACAGAATCTGT"
observedmeasurement = 0.46

[[record]]
orderedresidues = "CCCCACGCTGCCCTCGGA"
observedmeasurement = 0.8

[[record]]
orderedresidues = "AGTGCATAAGAGGCCACAGC"
observedmeasurement = 0.56

[[record]]
orderedresidues = "CACTCTCGGGCAGCCAGC"
observedmeasurement = 0.91

[[record]]
orderedresidues = "CGCCCGCCGGTGCCGCCT"
observedmeasurement = 0.47


Prompt: Tell me the measured remaining target (mRNA or protein) (fraction of control) of CCTTGAAGACCTTGCGGA , please.
Response: 0.14

Prompt: Tell me the measured remaining target (mRNA or protein) (fraction of control) of ACAGTGTTTTCCGCGGT , please.
Response: 0.53

Prompt: Tell me the measured remaining target (mRNA or protein) (fraction of control) of ATTCAGCATTTTGTAAGG , please.
Response: 0.99

Prompt: Tell me the measured remaining target (mRNA or protein) (fraction of control) of CCATCTATGAGCACACTTCG , please.
Response: 0.33

Prompt: Tell me the measured remaining target (mRNA or protein) (fraction of control) of TTCAATGGCTTCCACGAG , please.
Response: 0.94

Prompt: Tell me the measured remaining target (mRNA or protein) (fraction of control) of GGAAACTGAGTCAAGCAA , please.
Response: 0.62

###

Examples of sequences with documented remaining target (mRNA or protein) (fraction of control) follow.
target: PTPN6; conditions: ASO
These antisense oligonucleotides have a phosphorothioate backbone; sugars and methylation of C are not fully specified.
Respond using a number only.

Examples from the recorded data:
[[record]]
orderedresidues = "CAGCATCTCTCTGTAGGGAG"
targetortestsystem = "PTPN6"
observedmeasurement = 0.81

[[record]]
orderedresidues = "GACAGCATCTCTCTGTAGGG"
targetortestsystem = "PTPN6"
observedmeasurement = 0.78


Prompt: Tell me the measured remaining target (mRNA or protein) (fraction of control) of CGACTCCTGGCCCTTCTGCG , please.
Response: 0.61

###

molecular target: BIRC5; settings: ASO
These antisense oligonucleotides have a phosphorothioate backbone; sugars and methylation of C are not fully specified.
Examples of sequences with documented remaining target (mRNA or protein) (fraction of control) follow.

[[record]]
orderedresidues = "ACAGGCAGAAGCACCTCT"
observedmeasurement = "≥ 1"


Prompt: Tell me the measured remaining target (mRNA or protein) (fraction of control) of ATGACAGGGAGGAGGGCG , please.
Response: ≥ 1

Prompt: Tell me the measured remaining target (mRNA or protein) (fraction of control) of GGTTAATTCTTCAAACTG , please.
Response: ≥ 1

###

molecular target: DUSP8; settings: ASO
These antisense oligonucleotides have a phosphorothioate backbone; sugars and methylation of C are not fully specified.
testReadout: remaining target (mRNA or protein) (fraction of control)
Respond using a number only.

Examples from the recorded data:
[[record]]
orderedresidues = "TCGCCTGCTTGCCCAGGGCG"
observedmeasurement = 0.69

[[record]]
orderedresidues = "GACTGAAGGTGGCCTCGTAT"
observedmeasurement = 0.69


Prompt: Item: TGCCCATGGTCTTCATGATG Test system: DUSP8 Read-out: remaining target (mRNA or protein) (fraction of control) Value: ?
Response: 0.7

###

biological target: IL15; settings: ASO
These antisense oligonucleotides have a phosphorothioate backbone; sugars and methylation of C are not fully specified.
testReadout: remaining target (mRNA or protein) (fraction of control)
Respond using a number only.

Examples from the recorded data:
[[record]]
orderedresidues = "ATTTAGGTAAGCTACTCT"
observedmeasurement = 0.75

[[record]]
orderedresidues = "CCATCCACGATGCCTCCT"
observedmeasurement = 0.5


--- query ---
Prompt: Tell me the measured remaining target (mRNA or protein) (fraction of control) of CTGTTTTAGGAAGCCCTG , please.
Response: 0.58

###

Examples of sequences with documented remaining target (mRNA or protein) (fraction of control) follow.
molecular target: REL; conditions: ASO
These antisense oligonucleotides have a phosphorothioate backbone; sugars and methylation of C are not fully specified.
Respond using a number only.

[[record]]
orderedresidues = "ATTCTCAGTCAGTATTAT"
observedmeasurement = 0.75


--- query ---
Prompt: Item: CGAGACAACAGGAGGAAG Test system: REL Read-out: remaining target (mRNA or protein) (fraction of control) Value: ?
Response: 0.8

###

Examples of sequences with documented remaining target (mRNA or protein) (fraction of control) follow.
target: SMAD3; conditions: ASO
These antisense oligonucleotides have a phosphorothioate backbone; sugars and methylation of C are not fully specified.
Respond using a number only.

[[record]]
orderedresidues = "CCTCCCCATCCCAAGTCT"
observedmeasurement = 0.59

[[record]]
orderedresidues = "CCTGTTGACATTGGAGAG"
observedmeasurement = 0.72

[[record]]
orderedresidues = "TCTGGTGGTCACTGGTTT"
observedmeasurement = 0.64

[[record]]
orderedresidues = "TGCTCGCCCTTCTTCCAG"
observedmeasurement = 0.61

[[record]]
orderedresidues = "ACATTCGGGTCAACTGGT"
observedmeasurement = 0.48

[[record]]
orderedresidues = "CCCCTCCGATGTAGTAGA"
observedmeasurement = 0.54

[[record]]
orderedresidues = "GTGCGGGCGGCGAGGAGC"
observedmeasurement = 0.86

[[record]]
orderedresidues = "CTCTGGGTTTGCTCGTGT"
observedmeasurement = 0.56


Prompt: Tell me the measured remaining target (mRNA or protein) (fraction of control) of GAGGCACTCTGCGAAGAC , please.
Response: 0.49

Prompt: Tell me the measured remaining target (mRNA or protein) (fraction of control) of TCTTCTTCCTTGACAACA , please.
Response: 0.92

Prompt: Tell me the measured remaining target (mRNA or protein) (fraction of control) of CCATTTCTCCTCCTGCCC , please.
Response: 0.62

###

Examples of sequences with documented remaining target (mRNA or protein) (fraction of control) follow.
biological target: SRA1; settings: ASO
These antisense oligonucleotides have a phosphorothioate backbone; sugars and methylation of C are not fully specified.

[[record]]
orderedresidues = "CATGGTCAACCATGAGGG"
observedmeasurement = "≥ 1"

[[record]]
orderedresidues = "ATCCTCCATCAGTCGAGC"
observedmeasurement = "≥ 1"

[[record]]
orderedresidues = "ATGAGGGAGCGGTGGATG"
observedmeasurement = "≥ 1"

[[record]]
orderedresidues = "GGCCTGGGTCTGCAGCCC"
observedmeasurement = 0.94

[[record]]
orderedresidues = "CTGACCTCAGTCACATGG"
observedmeasurement = "≥ 1"

[[record]]
orderedresidues = "CTTTTAACTCCTACCATC"
observedmeasurement = 0.43

[[record]]
orderedresidues = "TCTCCAAGGCATAGGAGA"
observedmeasurement = 0.8


Prompt: Tell me the measured remaining target (mRNA or protein) (fraction of control) of TTCTTTACAGGTATTGAC , please.
Response: ≥ 1
